TESTED_ON: Neutrophil collagenase (Homo sapiens, UniProt P22894)
Sequence (P22894 whole entry, the tested form may be a part): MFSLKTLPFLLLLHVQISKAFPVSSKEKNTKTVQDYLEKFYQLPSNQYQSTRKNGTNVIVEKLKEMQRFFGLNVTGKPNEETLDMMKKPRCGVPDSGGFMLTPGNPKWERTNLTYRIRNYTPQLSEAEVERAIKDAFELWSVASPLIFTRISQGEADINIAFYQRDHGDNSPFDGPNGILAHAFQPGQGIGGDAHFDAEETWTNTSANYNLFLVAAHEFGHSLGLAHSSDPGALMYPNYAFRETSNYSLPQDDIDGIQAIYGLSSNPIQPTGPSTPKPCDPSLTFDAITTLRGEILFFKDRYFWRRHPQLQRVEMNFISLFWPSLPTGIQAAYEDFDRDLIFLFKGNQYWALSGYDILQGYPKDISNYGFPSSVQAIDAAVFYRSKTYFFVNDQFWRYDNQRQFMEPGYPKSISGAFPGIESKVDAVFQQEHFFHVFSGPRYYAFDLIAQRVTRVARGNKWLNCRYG
ASSAY: Inhibition of recombinant human MMP8 catalytic domain (Phe99 to Gln269 residues) expressed in Escherichia coli using McaKPLGL-Dpa-AR-NH2 as substrate by fluorescence spectrophotometric method
OUTCOME_MEASURE: pKi
Please report pKi as the negative decimal logarithm of the molar concentration, giving only the number.

[[record]]
cpd_smiles = "O=C(NO)[C@H]1C[C@H](OC(=O)N2CCCC2)CC[C@@H]1C(=O)N1CCC(c2ccccc2)CC1"
outcome_measure = "pKi"
numeric_value = 5.06


--- query ---
QUERY: Identify measured pKi associated with "CN1CC2(CC2)C[C@H](C(=O)NO)[C@H]1C(=O)N1CCN(c2ccc(C(F)(F)F)cn2)CC1"
RESULT: 8.52
